This collection of values is drawn from PubChem BioAssay (NCI).

- Test system: BT-549 breast
- test_details: NCI tumour cell line growth inhibition, 48 h; in the data active = GI50 below about 0.43 µM; inactive = the rest
Outcomes: true for active, false for inactive

{"columns": ["molecule", "classification"],
 "data": [
  ["CC(=O)[C@@]12O[C@@H]1CC1C3CCC4=CC(O)CCC4(C)C3CCC12C (stereo partly drawn)", "false"],
  ["O=C(CSc1ccc(Cl)cc1)Nc1ccc(-c2nc3ccccc3s2)c(Cl)c1", "false"],
  ["CCCCCCCC(=O)SCC/C=C/[C@@H]1CC(=O)NCc2cc(ccn2)C2=N[C@@](C)(CS2)C(=O)N[C@@H](C(C)C)C(=O)O1", "true"]
]}

* * *

- Test system: SK-OV-3 ovarian
- test_details: NCI tumour cell line growth inhibition, 48 h; in the data active = GI50 below about 0.43 µM; inactive = the rest
Outcomes: Y for active, N for inactive

{"columns": ["compound", "tested_target", "classification"],
 "data": [
  ["COc1ccc(-c2nnc(COc3ccc(NC(=O)Nc4cc(C(F)(F)F)cc(C(F)(F)F)c4)cc3F)o2)cc1", "SK-OV-3 ovarian", "N"],
  ["Cc1cc(I)cc(CN(C)CCCN2CCCCC2)c1O", "SK-OV-3 ovarian", "N"],
  ["O=c1c2sccc2n(CC2COc3ccccc3O2)c(=O)n1O (stereo not given)", "SK-OV-3 ovarian", "N"],
  ["CN1CCN(CCCn2c(=O)c3sc4ncccc4c3n3nnc(-c4ccccc4)c23)CC1", "SK-OV-3 ovarian", "N"],
  ["O=C1c2cc3c(cc2-c2c1c1ccc(F)cc1c(=O)n2CCCNCCO)OCO3", "SK-OV-3 ovarian", "Y"],
  ["CCCCCCCC(=O)SCC/C=C/[C@@H]1CC(=O)NCc2cc(ccn2)C2=N[C@@](C)(CS2)C(=O)N[C@@H](C(C)C)C(=O)O1", "SK-OV-3 ovarian", "Y"],
  ["C=C1C(=O)O[C@H]2[C@H]1CC/C(COC(=O)c1c[nH]c3ccccc13)=C\\CC[C@@]1(C)O[C@@H]21", "SK-OV-3 ovarian", "N"],
  ["C=C1NC(=O)C(C(C)CC)NC(=O)C2CSCC(NC(=O)CCC(=O)O)C(=O)NC(Cc3ccccc3)C(=O)NC(C)C(=O)NC(CC(C)CC)C(=O)NC(C(=O)NC(Cc3ccccc3)C(=O)N3CCCC3C(=O)N2)C(C)OC(=O)C(CO)NC(=O)C(C(O)COC)N(C)C(=O)C(C(C)C)NC(=O)C(CC(C)CC)NC1=O (stereo not given)", "SK-OV-3 ovarian", "Y"],
  ["OCCCCCNCc1cc2cc3c(cc2c2cc(OCc4ccccc4)ccc12)OCO3", "SK-OV-3 ovarian", "N"],
  ["CCN1CCN(c2nc(C)cc(N(CCNc3ccnc4cc(Cl)ccc34)Cc3ccc4c(c3)OCO4)n2)CC1", "SK-OV-3 ovarian", "N"]
]}

* * *

Examples of molecules with documented TGI follow.
- System: CAKI-1 renal
- test_details: NCI tumour cell line growth inhibition, 48 h

{"columns": ["molecule", "measurement_units", "qualifying_sign", "TGI"],
 "data": [
  ["O=C(Nc1nccs1)c1c(O)nc2sccn2c1=O", "µM", ">", 10],
  ["OCC#Cc1ccccc1C#Cc1ccccc1", "µM", "=", 25.5],
  ["COc1cccc2c1OC1(C=C2)Oc2ccccc2C(=O)N1C (stereo not drawn)", "µM", ">", 100],
  ["CC(C)[C@H]1COC(=O)N1[C@@H]1C(=O)N([C@@H](CCC(=O)N2CCN(C3CCCC3)CC2)C(=O)N[C@@H]2CCCc3ccccc32)[C@@H]1/C=C/c1cccc(Br)c1", "µM", "=", 4.01],
  ["O=C(CSc1ccc(Cl)cc1)Nc1ccc(-c2nc3ccccc3s2)c(Cl)c1", "µM", "=", 10.3],
  ["COc1cc(NS(C)(=O)=O)ccc1Nc1cc(C)[nH]c2ccc3nccc3c12", "µM", ">", 100],
  ["CCOP(=O)(OCC)C(c1ccc(F)cc1)N(C(=O)NC(F)(F)F)c1ccc(OC)cc1 (stereo not drawn)", "µM", ">", 100],
  ["O=c1c2sccc2n(CC2COc3ccccc3O2)c(=O)n1O (stereo not drawn)", "µM", "=", 97.3]
]}
